Tested on: HOP-62 multicell spheroids with HUVEC/MSC, viability
Test: Anticancer human tumor HOP-62 cell line growth inhibition [KRAS2]; active = viability on the fitted dose curve at most 10% of control; inactive = the rest;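 also: viability read after a week of compound exposure; 100% = DMSO vehicle-treated spheroids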
Details: second compound 3.16 µM; first compound 0.316 µM
Please answer using one outcome listed in true (1) (active), false (0) (inactive)

Example cases with answers are listed next.
[
  {
    "Molecule": "CCN1CCN(Cc2ccc(Nc3ncc(F)c(-c4cc(F)c5nc(C)n(C(C)C)c5c4)n3)nc2)CC1 + C=CC(=O)N1CCN(c2nc(OCC3CCCN3C)nc3c2CCN(c2cccc4cccc(C)c24)C3)CC1CC#N",
    "Class name": "true (1)"
  },
  {
    "Molecule": "CC(=O)OC12COC1CC(O)C1(C)C(=O)C(O)C3=C(C)C(OC(=O)C(O)C(NC(=O)OC(C)(C)C)c4ccccc4)CC(O)(C(OC(=O)c4ccccc4)C21)C3(C)C (stereo not drawn) + CC1OCC2(CCN(c3cnc(Sc4ccnc(N)c4Cl)c(N)n3)CC2)C1N",
    "Class name": "false (0)"
  }
]

Here's the next entry for you.
stdin: Write down the call the test reported for this molecule. Item: CC(C)NCC(C(=O)N1CCN(c2ncnc3c2C(C)CC3O)CC1)c1ccc(Cl)cc1 (stereo not drawn) + COc1cc2nc(C)nc(NC(C)c3cc(N)cc(C(F)(F)F)c3)c2cc1OC1CCOC1
stdout: false (0)
